System: VchCAST RNA-guided transposition machinery (E. coli BL21(DE3) host, lacZ target)
Assay: relative integration efficiency (T-LR orientation) vs wild-type transposon end (log2 (normalized fold change)); transposon end mutated: left end; higher = more efficient transposition
Binary call on relative integration efficiency (log2): rule met from -0.8 upward, rule not met beneath that.

sequence.data	target.or.test.system	cat
AATGTTGTTGATGCAACCATAAAGTGATATTTAATAATTATTTATAATCAGCAACTTAACCACACCCACCAACGCGCGGTCGCGAGACACCCCACCAACGCCTGGTCGCGGGGGTGTCCGATCTGATTTCAGCAAAACTACTGCAGTAAGAA	VchCAST RNA-guided transposition machinery (E. coli BL21(DE3) host, lacZ target)	rule not met
AATGTTGTTGATGCAACCATAAAGTGATATTTACAACCATATATTGATATCTCACACAACCATAAGTTGATATTTTTGTGAATCGAGTATTTCAGCAAAACTACTGCAGTAAGAAAGTTACTTCGTGGTATGGGAGGATCAAGGAGCCAATA	VchCAST RNA-guided transposition machinery (E. coli BL21(DE3) host, lacZ target)	rule met
AATGTTGTTGATGCAACCATAAAGTGATATTTAATAATTATTTATAATCAGCAACTTAACCACAAAACAACCATATATTGATATCTCACAAAACAACCATAAGTTGCGCGGGGGTGTCCGATCTGATTTCAGCAAAACTACTGCAGTAAGAA	VchCAST RNA-guided transposition machinery (E. coli BL21(DE3) host, lacZ target)	rule not met
AATGTTGTTGATGCAACCATAAAGTGATATTTACTAGGATTCATGTCAACGTGCAAGCTTAGTTCGACAACCATATATTGATATCTCACAAAACAACCATAAGTTGATATTTTTGTGAATCGAGTATTTCAGCAAAACTACTGCAGTAAGAA	VchCAST RNA-guided transposition machinery (E. coli BL21(DE3) host, lacZ target)	rule not met
AATGTTGTTGATGCAACCATAAAGTGATATTTATAATTATTTATAATCAGCAACTTAACCACAAAACAACCATATATTGATATCTCACAAAACAACCATAAGTTGATATTTTTGTGAATCGAGTATTTCAGCAAAACTACTGCAGTAAGAAA	VchCAST RNA-guided transposition machinery (E. coli BL21(DE3) host, lacZ target)	rule met
AATGTTGTTGATGCAACCATAAAGTGATATTTAATAATTATTTATAATCAGCACAACCATATATTGATATCTCACTTAACCACAAAAACAAAACAACCATAAGTTGATATTTTTGTGAATCGAGTATTTCAGCAAAACTACTGCAGTAAGAA	VchCAST RNA-guided transposition machinery (E. coli BL21(DE3) host, lacZ target)	rule not met
AATGTTGTTGATCAACCATAAAGTGATATTTAATAATTATTTATAATCAGCAACTTAACCACAAAACAACCATATATTGATATCTCACAAAACAACCATAAGTTGATATTTTTGTGAATCGAGTATTTCAGCAAAACTACTGCAGTAAGAAA	VchCAST RNA-guided transposition machinery (E. coli BL21(DE3) host, lacZ target)	rule not met
AATGTTGTTGATGTCAACCATAAAGTGATATTTAATAATTATTTATAATCAGCAACTTAACCACAAAACAACCATATATTGATATCTCACAAAACAACCATAAGTTGATATTTTTGTGAATCGAGTATTTCAGCAAAACTACTGCAGTAAGA	VchCAST RNA-guided transposition machinery (E. coli BL21(DE3) host, lacZ target)	rule met
